B1: library; numbered along this chain (parent)
chain: MEVVDPQQLGMFTEGELMSVGMDTFIHRIDSTEVIYQPRRKRAKLIGKYLMGDLLGEGSYGKVKEVLDSETLCRRAVKILKKKKLRRIPNGEANVKKEIQLLRRLRHKNVIQLVDVLYNEEKQKMYMVMEYCVCGMQEMLDSVPEKRFPVCQAHGYFCQLIDGLEYLHSQGIVHKDIKPGNLLLTTGGTLKISDLGVAEALHPFAADDTCRTSQGSPAFQPPEIANGLDTFSGFKVDIWSAGVTLYNITTGLYPFEGDNIYKLFENIGKGSYAIPGDCGPPLSDLLKGMLEYEPAKRFSIRQIRQHSWFRKKHPPAEAPVPIPPSPDTKDRWRSMTVVPYLEDLHGADEDEDLFDIEDDIIYTQDFTVPGQVPEEEASHNGQRRGLPKAVCMNGTEAAQLSTKSRAEGRAPNPARKACSASSKIRRLSACKQQ

- Variants of: B1
- Protocol Description: STK11 functional score (HeLa growth suppression), rescaled enrichment; synonymous median = 1, nonsense median = 0 (normalised score)
- Setup Conditions: with HeLa; variant type: missense
Rule for this label: Fulfilled means STK11 functional score is less than 1; Not fulfilled means STK11 functional score is at least 1.

Reference set, count: 4
Inquiry: I'd appreciate it if you could check whether "A397Y" has STK11 functional score smaller than 1.
Reply text: Not fulfilled

Inquiry: I'd appreciate it if you could check whether "M289V" has STK11 functional score smaller than 1.
Reply text: Fulfilled

Inquiry: I'd appreciate it if you could check whether "D359A" has STK11 functional score smaller than 1.
Reply text: Not fulfilled

Inquiry: I'd appreciate it if you could check whether "E291P" has STK11 functional score smaller than 1.
Reply text: Fulfilled

New cases:
Inquiry: I'd appreciate it if you could check whether "V128N" has STK11 functional score smaller than 1.
Reply text: Not fulfilled

Inquiry: I'd appreciate it if you could check whether "H107S" has STK11 functional score smaller than 1.
Reply text: Fulfilled
